# ASSAY: Plasma protein binding assay (rapid equilibrium dialysis)
# Format: in vitro ADME
# RUN CONDITIONS: Table 10
TEST READOUT: plasma unbound fraction (%)

INSERT INTO results (molecule, test_readout, result_value) VALUES
  ('CO[C@H]1/C=C/O[C@@]2(C)Oc3c(C)c(O)c4c(c3C2=O)C2=NC3(CCN(CC(C)C)CC3)NC2=C(NC(=O)/C(C)=C/C=C/[C@H](C)[C@H](O)[C@@H](C)[C@@H](O)[C@@H](C)[C@H](OC(=O)NCc2cc(-c3ccccc3)no2)[C@@H]1C)C4=O [UMN40]', 'plasma unbound fraction', 0.12),
  ('CO[C@H]1/C=C/O[C@@]2(C)Oc3c(C)c(O)c4c(c3C2=O)C2=NC3(CCN(CC(C)C)CC3)NC2=C(NC(=O)/C(C)=C/C=C/[C@H](C)[C@H](O)[C@@H](C)[C@@H](O)[C@@H](C)[C@H](OC(=O)Nc2ccc(C)cc2)[C@@H]1C)C4=O [UMN43]', 'plasma unbound fraction', 0.05),
  ('COC1C=COC2(C)Oc3c(C)c(O)c4c(c3C2=O)C2=NC3(CCN(CC(C)C)CC3)NC2=C(NC(=O)C(C)=CC=CC(C)C(O)C(C)C(O)C(C)C(OC(=O)N2CCOC(C)C2)C1C)C4=O (centres unmarked) [UMN68]', 'plasma unbound fraction', 2.40),
  ('COc1ccccc1C(=O)O[C@H]1[C@H](C)[C@H](O)[C@H](C)[C@@H](O)[C@@H](C)/C=C/C=C(\C)C(=O)NC2=C3NC4(CCN(CC(C)C)CC4)N=C3c3c(c(O)c(C)c4c3C(=O)[C@@](C)(O/C=C/[C@H](OC)[C@H]1C)O4)C2=O [UMN29]', 'plasma unbound fraction', 0.22),
  ('COc1cccc(NC(=O)O[C@H]2[C@H](C)[C@H](O)[C@H](C)[C@@H](O)[C@@H](C)/C=C/C=C(\C)C(=O)NC3=C4NC5(CCN(CC(C)C)CC5)N=C4c4c(c(O)c(C)c5c4C(=O)[C@@](C)(O/C=C/[C@H](OC)[C@H]2C)O5)C3=O)c1 [UMN42]', 'plasma unbound fraction', 0.09),
  ('CO[C@H]1/C=C/O[C@@]2(C)Oc3c(C)c(O)c4c(c3C2=O)C2=NC3(CCN(CC(C)C)CC3)NC2=C(NC(=O)/C(C)=C/C=C/[C@H](C)[C@H](O)[C@@H](C)[C@@H](O)[C@@H](C)[C@H](OC(=O)N2CCCC2(C)C)[C@@H]1C)C4=O [UMN61]', 'plasma unbound fraction', 0.17),
  ('COC1C=COC2(C)Oc3c(C)c(O)c4c(c3C2=O)C2=NC3(CCN(CC(C)C)CC3)NC2=C(NC(=O)C(C)=CC=CC(C)C(O)C(C)C(O)C(C)C(OC(=O)N2CCOC(C)C2)C1C)C4=O (centres unmarked) [UMN70]', 'plasma unbound fraction', 0.56),
  ('CO[C@H]1/C=C/O[C@@]2(C)Oc3c(C)c(O)c4c(c3C2=O)C2=NC3(CCN(CC(C)C)CC3)NC2=C(NC(=O)/C(C)=C/C=C/[C@H](C)[C@H](O)[C@@H](C)[C@@H](O)[C@@H](C)[C@H](OC(=O)Nc2cccnn2)[C@@H]1C)C4=O [UMN64]', 'plasma unbound fraction', 4.15);

All values here come from patent US20260109712A1.
